- ASSAYED_TARGET: N-terminally GST-tagged human full length recombinant Mps-1 kinase (Homo sapiens)
- Construct: N-terminally GST-tagged human full length recombinant Mps-1 kinase; purchased Invitrogen, Karslruhe, Germany PV4071
- Sequence (P33981 whole entry): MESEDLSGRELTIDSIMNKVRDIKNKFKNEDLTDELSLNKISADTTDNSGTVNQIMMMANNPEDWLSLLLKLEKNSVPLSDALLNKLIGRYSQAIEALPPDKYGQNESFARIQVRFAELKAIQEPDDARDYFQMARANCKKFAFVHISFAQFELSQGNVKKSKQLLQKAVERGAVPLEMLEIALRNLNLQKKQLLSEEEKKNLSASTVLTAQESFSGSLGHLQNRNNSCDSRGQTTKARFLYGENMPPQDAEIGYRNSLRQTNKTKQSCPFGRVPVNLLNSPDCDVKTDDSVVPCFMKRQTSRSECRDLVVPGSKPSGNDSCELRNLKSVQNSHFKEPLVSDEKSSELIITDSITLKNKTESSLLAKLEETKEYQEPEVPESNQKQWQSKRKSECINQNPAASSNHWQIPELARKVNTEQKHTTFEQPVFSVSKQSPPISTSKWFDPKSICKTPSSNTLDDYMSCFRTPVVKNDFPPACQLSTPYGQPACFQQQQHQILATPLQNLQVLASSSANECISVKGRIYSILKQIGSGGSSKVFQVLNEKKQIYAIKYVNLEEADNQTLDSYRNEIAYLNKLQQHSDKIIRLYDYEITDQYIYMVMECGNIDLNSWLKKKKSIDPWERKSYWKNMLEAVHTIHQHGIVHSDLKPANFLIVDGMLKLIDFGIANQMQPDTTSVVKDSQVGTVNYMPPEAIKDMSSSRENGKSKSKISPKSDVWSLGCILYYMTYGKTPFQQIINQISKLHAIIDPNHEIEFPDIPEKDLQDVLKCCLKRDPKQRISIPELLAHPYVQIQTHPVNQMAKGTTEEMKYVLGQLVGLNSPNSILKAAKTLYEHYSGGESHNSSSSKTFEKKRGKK
- ASSAY_SUMMARY: Mps-1 kinase assay (TR-FRET)
- Format: biochemical
- SETUP_CONDITIONS: Mps1 IC50 [nM], 10 μM ATP, 1 μM peptide substrate, 60 min at 22° C.
Recorded IC50 by entry
VALUE_TYPE: IC50 (nM)

>  <CHEM_SMILES>
Cc1cc(-c2cnc3c(NCCC(F)(F)F)cc(Nc4ccccc4O)nn23)ccc1C(=O)NC1CC1

>  <CMP>
=

>  <TEST_VALUE>
0.1

$$$$
>  <CHEM_SMILES>
COC(C)(C)CNc1cc(-c2ccncc2)nn2c(-c3ccc(C(=O)NC4CC4)c(C)c3)cnc12

>  <CMP>
=

>  <TEST_VALUE>
3.2

$$$$
>  <CHEM_SMILES>
Cc1cc(-c2cnc3c(NCC(C)(C)O)cc(Sc4cc(F)cc(F)c4)nn23)ccc1C(=O)NC1CC1

>  <CMP>
<

>  <TEST_VALUE>
0.1

$$$$
>  <CHEM_SMILES>
CNc1ccccc1Oc1cc(NCCN2CCOCC2)c2ncc(-c3ccc(C(=O)NC4CC4)c(C)c3)n2n1

>  <CMP>
=

>  <TEST_VALUE>
0.8

$$$$
>  <CHEM_SMILES>
COc1ccccc1Oc1cc(NCCC(F)(F)F)c2ncc(-c3ccc(C(=O)NC4CC4)c(C)c3)n2n1

>  <CMP>
=

>  <TEST_VALUE>
0.2

$$$$
>  <CHEM_SMILES>
Cc1cc(-c2cnc3c(NCC(C)(C)O)cc(Oc4ccnn4C)nn23)ccc1C(=O)NC1CC1

>  <CMP>
=

>  <TEST_VALUE>
121

$$$$
>  <CHEM_SMILES>
CC(C)CNc1cc(-c2ccc3nccn3c2)nn2c(-c3ccc(C(=O)NC4CC4)cc3)cnc12

>  <CMP>
<

>  <TEST_VALUE>
1

$$$$
>  <CHEM_SMILES>
CNC(=O)c1ccc(-c2cnc3c(NCC(F)F)cc(Oc4ccc(OC)cc4F)nn23)cc1C

>  <CMP>
<

>  <TEST_VALUE>
1

$$$$
>  <CHEM_SMILES>
Cc1cc(-c2cnc3c(NCCCCN(C)C)cc(Oc4cccc(F)c4)nn23)ccc1C(=O)NC1CC1

>  <CMP>
=

>  <TEST_VALUE>
0.2

$$$$
>  <CHEM_SMILES>
Cc1cc(-c2cnc3c(NCCC(F)(F)F)cc(Sc4ccccc4)nn23)ccc1C(=S)NC1CC1

>  <CMP>
=

>  <TEST_VALUE>
0.3

$$$$
>  <CHEM_SMILES>
CCNC(=O)c1ccc(-c2cnc3c(NCC(F)F)cc(Oc4ccc(OC)cc4F)nn23)cc1C

>  <CMP>
=

>  <TEST_VALUE>
1.2

$$$$
>  <CHEM_SMILES>
Cc1cc(-c2cnc3c(NCCC(F)(F)F)cc(Oc4cccc(F)c4)nn23)ccc1C(=O)NCC(F)(F)C(F)(F)F

>  <CMP>
=

>  <TEST_VALUE>
9.4

$$$$
>  <CHEM_SMILES>
Cc1cc(-c2cnc3c(NCC(C)(C)N)cc(-c4ccccc4CO)nn23)ccc1C(=O)NC1CC1

>  <CMP>
=

>  <TEST_VALUE>
32.5

$$$$
>  <CHEM_SMILES>
CC(C)CNc1cc(-c2cccc(CO)c2)nn2c(-c3ccc(C(=O)NC4CC4)cc3)cnc12

>  <CMP>
<

>  <TEST_VALUE>
1

$$$$
>  <CHEM_SMILES>
Cc1cc(-c2cnc3c(NCC(C)(C)O)cc(Nc4ccc(F)cc4Cl)nn23)ccc1C(=O)NC1CC1

>  <CMP>
=

>  <TEST_VALUE>
0.2

$$$$
